system: cocklebur; assay: Test B preemergence/postemergence greenhouse plant response rating 0 to 10; format: in vivo, Xanthium pensylvanicum; settings: POSTEMERGENCE, Rate 50 g/ha; 0 to 10 scale
metric-name: Plant response rating, Cocklebur

Ask: Give the measured Plant response rating, Cocklebur of `Oc1cc(-c2nn3c(c2Br)CCCC3)c(F)cc1Cl` .
Result: 8

Ask: Give the measured Plant response rating, Cocklebur of `C=CCN1C(=O)COc2cc(F)c(-c3nn4c(c3Cl)CCCC4)cc21` .
Result: 10

Ask: Give the measured Plant response rating, Cocklebur of `COCN1C(=O)COc2cc(F)c(-c3nn4c(c3Br)CCCC4)cc21` .
Result: 9

Ask: Give the measured Plant response rating, Cocklebur of `Fc1cc(Cl)ccc1-c1nn2c(c1Br)CCCC2` .
Result: 6

Ask: Give the measured Plant response rating, Cocklebur of `C#CCN1C(=O)COc2cc(F)c(-c3nn4c(c3Cl)CCCC4)cc21` .
Result: 1

Ask: Give the measured Plant response rating, Cocklebur of C#CC(C)Oc1cc(-c2nn3c(c2Cl)CCCC3)c(Cl)cc1Cl (centres unmarked) .
Result: 9

Ask: Give the measured Plant response rating, Cocklebur of `C=CCOC(=O)COc1cc(-c2nn3c(c2Cl)CCCC3)c(F)cc1Cl` .
Result: 9

Ask: Give the measured Plant response rating, Cocklebur of `CCOC(=O)c1cc(-c2nn3c(c2Cl)CCCC3)c(F)cc1Cl` .
Result: 8

Ask: Give the measured Plant response rating, Cocklebur of `CCOCOc1cc(-c2nn3c(c2Cl)CCCC3)c(F)cc1Cl` .
Result: 7

Ask: Give the measured Plant response rating, Cocklebur of `C=C(Cl)COc1cc(-c2nn3c(c2Cl)CCCC3)c(F)cc1Cl` .
Result: 5

Ask: Give the measured Plant response rating, Cocklebur of `COCOc1cc(-c2nn3c(c2Br)CCCC3)c(F)cc1Cl` .
Result: 10

Ask: Give the measured Plant response rating, Cocklebur of `CC(C)OC(=O)COc1cc(-c2nn3c(c2Br)CCCC3)c(F)cc1Cl` .
Result: 10

Ask: Give the measured Plant response rating, Cocklebur of `CCC(=O)Oc1cc(-c2nn3c(c2Cl)CCCC3)c(F)cc1Cl` .
Result: 6

Ask: Give the measured Plant response rating, Cocklebur of `Oc1cc(-c2nn3c(c2Cl)CCCC3)c(Cl)cc1Cl` .
Result: 6

----------
tested on: blackgrass; assay: Test B preemergence/postemergence greenhouse plant response rating 0 to 10; assay type: in vivo, Alopecurus myosuroides; conditions: PREEMERGENCE, Rate 50 g/ha; 0 to 10 scale
Assign class by Plant response rating, Blackgrass: not lower than 2 means MET; lower than 2 means NOT MET.

Ask: Identify whether the reported Plant response rating, Blackgrass of the following molecule is 2 or greater: `C=CCOc1cc(-c2nn3c(c2Br)CCCC3)c(F)cc1Cl`
Result: NOT MET

Ask: Identify whether the reported Plant response rating, Blackgrass of the following molecule is 2 or greater: `COCCN1C(=O)COc2cc(F)c(-c3nn4c(c3Cl)CCCC4)cc21`
Result: MET

Ask: Identify whether the reported Plant response rating, Blackgrass of the following molecule is 2 or greater: `C#CCOc1cc(-c2nn3c(c2Br)CCCC3)c(F)cc1Cl`
Result: MET

Ask: Identify whether the reported Plant response rating, Blackgrass of the following molecule is 2 or greater: `COc1cc(-c2nn3c(c2Cl)CCCC3)c(F)cc1Cl`
Result: MET

Ask: Identify whether the reported Plant response rating, Blackgrass of the following molecule is 2 or greater: `Fc1cc(Cl)c(-c2ccccc2)cc1-c1nn2c(c1Cl)CCCC2`
Result: NOT MET

Ask: Identify whether the reported Plant response rating, Blackgrass of the following molecule is 2 or greater: `C#CCN1C(=O)COc2cc(F)c(-c3nn4c(c3Br)CCCC4)cc21`
Result: MET

Ask: Identify whether the reported Plant response rating, Blackgrass of the following molecule is 2 or greater: `CC(C)OC(=O)c1cc(-c2nn3c(c2Cl)CCCC3)c(F)cc1Cl`
Result: MET

Data origin, for the record: patent US6358885B1
